# Test system: 439559-082-T-J2-PDC spheroids viability;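 also: spheroids exposed to the agents for 7 days before readout; percent of luminescence signal in DMSO vehicle wells taken as 100% viability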
# assayName: Anticancer human tumor 439559-082-T-J2-PDC patient-derived colon adenocarcinoma cell line growth inhibition [GQUAD]
# conditionLabel: second compound 1 µM; first compound 0.00316 µM; hits give low values
assayMetric: viability, T/C (%)
The response must be a number in % with no trailing unit.

Given item CCc1c2c(nc3ccc(O)cc13)-c1cc3c(c(=O)n1C2)COC(=O)[C@]3(O)CC + Cc1cnc(CNC(=O)c2c(=O)c3ccc(N4CCCN(C)CC4)nc3n3c2sc2ccccc23)cn1 , the value recorded as its viability, T/C is 69.9

Given item CC[C@@]1(O)C(=O)OCc2c1cc1n(c2=O)Cc2cc3c(CN(C)C)c(O)ccc3nc2-1 + CN(C)c1ccc(Nc2c3ccc(NC(=O)CCN4CCCC4)cc3nc3cc(NC(=O)CCN4CCCC4)ccc23)cc1 , the value recorded as its viability, T/C is 99

Given item Cn1ncnc1[C@H]1c2n[nH]c(=O)c3cc(F)cc(c23)N[C@@H]1c1ccc(F)cc1 + Cc1cnc(CNC(=O)c2c(=O)c3ccc(N4CCCN(C)CC4)nc3n3c2sc2ccccc23)cn1 , the value recorded as its viability, T/C is 81.5

Given item Cc1[nH]c2ccccc2c1CCNCc1ccc(/C=C/C(=O)NO)cc1 + CN(C)c1ccc(Nc2c3ccc(NC(=O)CCN4CCCC4)cc3nc3cc(NC(=O)CCN4CCCC4)ccc23)cc1 , the value recorded as its viability, T/C is 99.1

Given item Cc1[nH]c2ccccc2c1CCNCc1ccc(/C=C/C(=O)NO)cc1 + Cc1cnc(CNC(=O)c2c(=O)c3ccc(N4CCCN(C)CC4)nc3n3c2sc2ccccc23)cn1 , the value recorded as its viability, T/C is 79.6

Given item CC[C@@]1(O)C(=O)OCc2c1cc1n(c2=O)Cc2cc3c(CN(C)C)c(O)ccc3nc2-1 + Cc1[nH]c2ccc(F)cc2c1-c1nc2c3cccnc3c3ncccc3c2[nH]1 , the value recorded as its viability, T/C is 101

Given item CCc1c2c(nc3ccc(O)cc13)-c1cc3c(c(=O)n1C2)COC(=O)[C@]3(O)CC + Cc1[nH]c2ccc(F)cc2c1-c1nc2c3cccnc3c3ncccc3c2[nH]1 , the value recorded as its viability, T/C is 79.8

Given item Cn1ncnc1[C@H]1c2n[nH]c(=O)c3cc(F)cc(c23)N[C@@H]1c1ccc(F)cc1 + CN(C)c1ccc(Nc2c3ccc(NC(=O)CCN4CCCC4)cc3nc3cc(NC(=O)CCN4CCCC4)ccc23)cc1 , the value recorded as its viability, T/C is 91.7

Given item Cc1[nH]c2ccccc2c1CCNCc1ccc(/C=C/C(=O)NO)cc1 + Cc1[nH]c2ccc(F)cc2c1-c1nc2c3cccnc3c3ncccc3c2[nH]1 , the value recorded as its viability, T/C is 88.8

Given item CCc1c2c(nc3ccc(O)cc13)-c1cc3c(c(=O)n1C2)COC(=O)[C@]3(O)CC + CN(C)c1ccc(Nc2c3ccc(NC(=O)CCN4CCCC4)cc3nc3cc(NC(=O)CCN4CCCC4)ccc23)cc1 , the value recorded as its viability, T/C is 85.7

Given item Cn1ncnc1[C@H]1c2n[nH]c(=O)c3cc(F)cc(c23)N[C@@H]1c1ccc(F)cc1 + Cc1[nH]c2ccc(F)cc2c1-c1nc2c3cccnc3c3ncccc3c2[nH]1 , the value recorded as its viability, T/C is 98.5

Given item CC[C@@]1(O)C(=O)OCc2c1cc1n(c2=O)Cc2cc3c(CN(C)C)c(O)ccc3nc2-1 + Cc1cnc(CNC(=O)c2c(=O)c3ccc(N4CCCN(C)CC4)nc3n3c2sc2ccccc23)cn1 , the value recorded as its viability, T/C is 70.3
